- target-entity: Mitogen-activated protein kinase 14 (Homo sapiens)
- Sequence (Q16539 whole entry): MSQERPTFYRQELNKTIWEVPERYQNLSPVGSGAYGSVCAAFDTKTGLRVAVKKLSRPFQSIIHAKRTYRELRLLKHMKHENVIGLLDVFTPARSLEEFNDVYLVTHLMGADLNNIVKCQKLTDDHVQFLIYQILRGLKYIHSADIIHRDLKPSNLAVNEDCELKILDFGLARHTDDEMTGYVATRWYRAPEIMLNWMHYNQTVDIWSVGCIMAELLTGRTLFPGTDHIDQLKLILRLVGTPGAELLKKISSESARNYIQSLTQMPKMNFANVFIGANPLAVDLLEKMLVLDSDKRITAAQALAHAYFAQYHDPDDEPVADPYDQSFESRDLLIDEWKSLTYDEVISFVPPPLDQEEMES
- protocol-notes: Inhibition of p38alpha MAP kinase in whole blood (unknown origin) assessed as lipopolysaccharide-stimulated TNF-alpha release by ELISA
Quick list: pIC50 per entry.
Scale: pIC50 equals -log10([C]), with [C] in mol/L.

Examples with their reported pIC50 follow.
1) O=C(Nc1cc(Nc2ccc3c(c2)CCc2ccc(OCCN4CCOCC4)cc2C3=O)ccc1F)c1ccsc1 :: 7.59
2) CS(=O)(=O)CCNC(=O)c1ccc2c(c1)C(=O)c1ccc(Nc3ccc(F)cc3F)cc1CC2 :: 7.30
3) CN1CCN(CCCNC(=O)c2ccc3c(c2)C(=O)c2ccc(Nc4ccc(F)cc4F)cc2CC3)CC1 :: 7.72
4) CC1(C)OC[C@@H](COc2ccc3c(c2)C(=O)c2ccc(Nc4ccc(F)c(NC(=O)c5ccccc5)c4)cc2CC3)O1 :: 6.35
5) COC(=O)CC[C@H](NC(=O)c1ccc2c(c1)C(=O)c1ccc(Nc3ccc(F)cc3F)cc1CC2)C(=O)OC :: 7.74
6) COc1ccc2c(c1)C(=O)c1ccc(Nc3ccc(F)c(NC(=O)c4ccccc4)c3)cc1CC2 :: 5.39
7) O=C(NCCN1CCOCC1)c1ccc2c(c1)C(=O)c1ccc(Nc3ccc(F)cc3F)cc1CC2 :: 7.54
8) CSCCNC(=O)c1ccc2c(c1)C(=O)c1ccc(Nc3ccc(F)cc3F)cc1CC2 :: 7.44
9) O=C(Nc1ccc(F)c(Nc2ccc3c(c2)CCc2ccc(OCCO)cc2C3=O)c1)c1ccccc1 :: 5.05
10) O=C(Nc1cc(Nc2ccc3c(c2)CCc2ccc(OCCN4CCOCC4)cc2C3=O)c(F)cc1F)c1ccccc1 :: 6.66

Lookup result for `O=C(OCCN1CCOCC1)c1ccc2c(c1)C(=O)c1ccc(Nc3ccc(F)cc3F)cc1CC2` ; measured pIC50: 6.62

Lookup result for `O=C(Nc1cc(Nc2ccc3c(c2)CCc2ccc(OCCN4CCOCC4)cc2C3=O)ccc1F)c1ccccc1` ; measured pIC50: 6.59
